Listing: cell count of selected compounds
system: A549-ACE2 infected with SARS-CoV-2; experiment: cell count relative to DMSO; higher = less toxic; conditions: 0.3 µM; 24 h
Supply the numeric figure in %, leaving out any unit text.

Cc1ccc(CNc2ncnc3ccc(-c4ccc(CO)o4)cc23)o1 | 99
Cn1nc(C(C)(C)C)cc1C(=O)N[C@@H](Cc1cccc(Cl)c1)C(=O)NCC#N | 117
COc1cc(N2CCN(C)CC2)ccc1Nc1nccc(-c2cn(C)c3cnccc23)n1 | 102

Here is the next item to consider.
Data request: Recorded cell count for CCN1CCN(c2ccc(Nc3cc(N(C)C(=O)Nc4c(Cl)c(OC)cc(OC)c4Cl)ncn3)cc2)CC1 , please?
Data returned: 91

Data credit: the supplement of paper PMC13380429
